// reported Relative Luciferase Units (RLU), CD80-Fe Cone 50 nM per item
Target: CD28 (Homo sapiens, UniProt P10747)
Test: Jurkat/IL2 + K562/OKT3/PD-L1 reporter assay
Assay type: cell-based
Design: host or cells: Jurkat cells expressing an IL-2-luciferase reporter
Conditions: Table E8; K562/OKT3/PD-L1 aAPC; 50 nM
measured-attribute: Relative Luciferase Units (RLU), CD80-Fe Cone 50 nM

- molecule: "I30V/E35D/M47V/A71G/A91V (protein, UniProt P33681 35-288, looked up, variant I30V E35D M47V A71G A91V) T-lymphocyte activation …: VIHVTKEVKEVATLSCGHNVSVEELAQTRVYWQKDKKMVLTMMSGDVNIWPEYKNRTIFDITNNLSIVILGLRPSDEGTYECVVLKYEKDVFKREHLAEVTLSVKADFPTPSISDFEIPTSNIRRIICSTSGGFPEPHLSWLENGEELNAINTTVSQDPETELYAVSSKLDFNMTTNHSFMCLIKYGHLRVNQTFNWNTTKQEHFPDNLLPSWAITLISVNGIFVICCLTYCFAPRCRERRRNERLRRESVRPV"
  endpoint-value: 1503
- molecule: "R29H/E35D/M43V/M47I/I49V (protein, UniProt P33681 35-288, looked up, variant R29H E35D M43V M47I I49V) T-lymphocyte activation …: VIHVTKEVKEVATLSCGHNVSVEELAQTHIYWQKDKKMVLTMVSGDINVWPEYKNRTIFDITNNLSIVILALRPSDEGTYECVVLKYEKDAFKREHLAEVTLSVKADFPTPSISDFEIPTSNIRRIICSTSGGFPEPHLSWLENGEELNAINTTVSQDPETELYAVSSKLDFNMTTNHSFMCLIKYGHLRVNQTFNWNTTKQEHFPDNLLPSWAITLISVNGIFVICCLTYCFAPRCRERRRNERLRRESVRPV"
  endpoint-value: 227
